# Subject Of Test: bovine RBCs
# Protocol Text: Saturation assay of radiolabelled HABPs
# Format: binding
# Assay Setup: saturation analysis; 7.5 × 10^7 RBCs, radiolabelled HABP 0–6000 nM, ± unlabelled peptide ~26 μM, 90 min at RT, 1:1 interaction model
Measurement Kind: Kd (nM)
Quick reminder: number only, in nM, skip the unit.

In plain terms, CPMHPVRDAIFGKWSGGSCV [compound 42443] has a documented Kd of 2400
